- study.target: native human MET on living cells (human, UniProt P08581 25-1390)
- Sequence (P08581 25-1390): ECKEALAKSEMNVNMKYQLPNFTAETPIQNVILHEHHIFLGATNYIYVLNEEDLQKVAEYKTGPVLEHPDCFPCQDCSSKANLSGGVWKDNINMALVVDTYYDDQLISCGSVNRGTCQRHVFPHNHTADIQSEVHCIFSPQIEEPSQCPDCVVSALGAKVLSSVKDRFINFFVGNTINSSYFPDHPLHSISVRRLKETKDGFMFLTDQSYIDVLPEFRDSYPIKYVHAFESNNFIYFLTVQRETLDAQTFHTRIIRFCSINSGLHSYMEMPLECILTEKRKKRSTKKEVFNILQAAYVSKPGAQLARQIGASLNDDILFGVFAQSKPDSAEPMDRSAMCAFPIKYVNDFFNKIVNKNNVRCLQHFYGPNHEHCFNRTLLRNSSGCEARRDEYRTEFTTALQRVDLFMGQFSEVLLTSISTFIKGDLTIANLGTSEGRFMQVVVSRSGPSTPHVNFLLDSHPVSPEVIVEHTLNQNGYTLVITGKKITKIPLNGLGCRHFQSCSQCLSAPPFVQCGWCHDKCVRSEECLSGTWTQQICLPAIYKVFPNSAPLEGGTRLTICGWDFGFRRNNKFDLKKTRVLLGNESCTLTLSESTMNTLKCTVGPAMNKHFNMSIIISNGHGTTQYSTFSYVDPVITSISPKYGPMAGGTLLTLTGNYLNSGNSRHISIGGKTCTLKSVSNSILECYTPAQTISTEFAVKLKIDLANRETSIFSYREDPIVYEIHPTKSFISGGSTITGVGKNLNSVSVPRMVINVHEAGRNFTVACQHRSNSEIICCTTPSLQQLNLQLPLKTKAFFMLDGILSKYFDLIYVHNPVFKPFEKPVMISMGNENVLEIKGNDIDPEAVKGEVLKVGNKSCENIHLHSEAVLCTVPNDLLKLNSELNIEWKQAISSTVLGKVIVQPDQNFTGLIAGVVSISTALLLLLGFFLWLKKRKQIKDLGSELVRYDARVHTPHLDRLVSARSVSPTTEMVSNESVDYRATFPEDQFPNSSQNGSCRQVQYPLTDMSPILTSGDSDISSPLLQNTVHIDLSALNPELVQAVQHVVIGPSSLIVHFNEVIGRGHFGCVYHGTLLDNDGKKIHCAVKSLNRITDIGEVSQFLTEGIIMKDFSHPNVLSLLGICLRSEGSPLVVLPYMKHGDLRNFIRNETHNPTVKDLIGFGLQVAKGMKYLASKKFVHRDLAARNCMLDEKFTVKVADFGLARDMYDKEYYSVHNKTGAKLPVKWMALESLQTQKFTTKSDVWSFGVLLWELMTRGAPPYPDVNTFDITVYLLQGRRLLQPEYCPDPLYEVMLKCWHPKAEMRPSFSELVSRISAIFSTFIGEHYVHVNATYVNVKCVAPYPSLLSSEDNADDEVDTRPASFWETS
- assay.name: cell-based or functional assay
observed.property: scatter score 0-4, HPAF-II, 0.012 nM (score)
Field: numeric (score). Do not append units.

Worked examples, 4 binders total:
| binder | unit.name | scatter score 0-4, HPAF-II, 0.012 nM |
| --- | --- | --- |
| 74C8 chimeric llama-human IgG1 mAb (antibody, V domains shown, llama VH on human IgG1 CH1-CH2-CH3, llama VL on human lambda CL) VH: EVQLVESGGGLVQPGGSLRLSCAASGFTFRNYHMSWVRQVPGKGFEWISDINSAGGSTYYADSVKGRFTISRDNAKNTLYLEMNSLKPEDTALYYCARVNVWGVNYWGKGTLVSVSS VL: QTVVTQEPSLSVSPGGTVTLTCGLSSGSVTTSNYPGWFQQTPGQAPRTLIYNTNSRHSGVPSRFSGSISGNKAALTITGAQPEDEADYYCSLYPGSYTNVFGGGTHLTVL | score | 0 |
| 76H10 chimeric llama-human IgG1 mAb (antibody, V domains shown, llama VH on human IgG1 CH1-CH2-CH3, llama VL on human lambda CL) VH: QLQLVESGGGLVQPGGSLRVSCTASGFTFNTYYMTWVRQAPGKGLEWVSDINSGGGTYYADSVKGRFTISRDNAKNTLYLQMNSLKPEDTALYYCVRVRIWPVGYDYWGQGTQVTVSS VL: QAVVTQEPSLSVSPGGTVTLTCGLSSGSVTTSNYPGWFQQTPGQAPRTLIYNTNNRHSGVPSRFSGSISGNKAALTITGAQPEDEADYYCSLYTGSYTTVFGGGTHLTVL | score | 0 |
| 71G2 chimeric llama-human IgG1 mAb (antibody, V domains shown, llama VH on human IgG1 CH1-CH2-CH3, llama VL on human lambda CL) VH: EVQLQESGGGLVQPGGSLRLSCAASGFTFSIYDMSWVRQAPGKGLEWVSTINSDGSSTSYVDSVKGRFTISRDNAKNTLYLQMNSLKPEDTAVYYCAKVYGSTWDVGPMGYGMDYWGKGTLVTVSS VL: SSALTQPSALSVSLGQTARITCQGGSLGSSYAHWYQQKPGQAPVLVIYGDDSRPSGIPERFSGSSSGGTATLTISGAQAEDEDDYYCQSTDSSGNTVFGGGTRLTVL | score | 2 |
| 71C3 chimeric llama-human IgG1 mAb (antibody, V domains shown, llama VH on human IgG1 CH1-CH2-CH3, llama VL on human lambda CL) VH: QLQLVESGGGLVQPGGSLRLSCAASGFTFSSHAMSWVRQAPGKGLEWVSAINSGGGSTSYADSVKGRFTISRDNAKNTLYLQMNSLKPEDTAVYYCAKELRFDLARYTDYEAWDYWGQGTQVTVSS VL: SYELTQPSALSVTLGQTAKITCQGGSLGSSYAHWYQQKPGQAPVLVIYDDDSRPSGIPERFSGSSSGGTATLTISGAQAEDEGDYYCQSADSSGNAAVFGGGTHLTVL | score | 0 |

Quick one: scatter score 0-4, HPAF-II, 0.012 nM for 72F8 chimeric llama-human IgG1 mAb (antibody, V domains shown, llama VH on human IgG1 CH1-CH2-CH3, llama VL on human lambda CL) VH: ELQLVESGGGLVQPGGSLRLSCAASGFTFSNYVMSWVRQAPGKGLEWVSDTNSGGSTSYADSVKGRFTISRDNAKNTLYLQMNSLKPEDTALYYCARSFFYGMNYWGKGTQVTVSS VL: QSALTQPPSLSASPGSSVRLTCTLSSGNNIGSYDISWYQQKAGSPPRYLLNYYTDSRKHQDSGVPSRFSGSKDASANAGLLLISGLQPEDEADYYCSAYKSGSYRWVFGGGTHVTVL ? 0
